assay: Selectivity index, ratio of EC50 for HEK293 cells to EC50 for Trypanosoma brucei brucei; assay type: toxicity, cell-based; settings: human, read-out: Ratio EC50
Here the recorded selectivity ratio is given for each entry.
experimental.readout: selectivity ratio

compound_string=N#Cc1nc(NCc2ccc(Cl)c(Cl)c2)c2ncn(CCCO)c2n1 recorded_result=227
compound_string=Cc1ccc(/C(=N\NC(N)=S)c2cc(C(F)(F)F)cc(C(F)(F)F)c2)cc1 recorded_result=19

* * *

test system: HEK293; assay: Cytotoxicity against HEK293 cells; assay type: cell-based; details: Homo sapiens
experimental.readout: EC50 (µM)

compound_string=Cc1ccc(/C(=N\NC(N)=S)c2cc(C(F)(F)F)cc(C(F)(F)F)c2)cc1 recorded_result=25
compound_string=N#Cc1nc(NCc2ccc(Cl)c(Cl)c2)c2ncn(CCCO)c2n1 recorded_result=25

* * *

target: Rhodesain (Trypanosoma brucei rhodesiense, UniProt Q95PM0); assay: Inhibition of […] after 5 mins by spectrofluorimetry
Sequence (Q95PM0 whole entry): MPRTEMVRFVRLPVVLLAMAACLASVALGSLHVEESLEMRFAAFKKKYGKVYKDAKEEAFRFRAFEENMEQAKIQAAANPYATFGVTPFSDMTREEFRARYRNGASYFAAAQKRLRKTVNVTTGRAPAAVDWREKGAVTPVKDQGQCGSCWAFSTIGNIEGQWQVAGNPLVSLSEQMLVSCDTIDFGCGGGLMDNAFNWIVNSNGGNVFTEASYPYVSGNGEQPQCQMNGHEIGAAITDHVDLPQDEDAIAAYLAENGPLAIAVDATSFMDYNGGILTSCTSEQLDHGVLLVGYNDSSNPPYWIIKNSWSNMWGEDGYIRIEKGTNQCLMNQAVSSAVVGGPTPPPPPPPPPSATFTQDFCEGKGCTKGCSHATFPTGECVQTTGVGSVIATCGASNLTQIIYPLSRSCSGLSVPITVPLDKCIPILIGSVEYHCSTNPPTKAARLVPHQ
experimental.readout: IC50

compound=COc1ccc2c3c4n(c2c1)[C@H](C=C(C)C)OOC(C)(C)C[C@@H]4N1C(=O)[C@@H]2CCCN2C(=O)[C@]1(O)[C@H]3O recorded_result="45 µM"
compound="CS[C@]1(CO)C(=O)N2c3c(O)cccc3C[C@@]2(SC)C(=O)N1C [DEHYDROBIS(METHYLTHIO)GLIOTOXIN]" recorded_result="19.5 µM"
compound=COc1ccc2c(c1)NC(=O)[C@@]21C=C2C(=O)N3CCC[C@H]3C(=O)N2[C@H]1C=C(C)C recorded_result="> 50 µM"
compound=CS[C@]1(COC(C)=O)C(=O)N2[C@H]3C(=CC=C[C@@H]3OC(C)=O)C[C@@]2(SC)C(=O)N1C recorded_result="> 50 µM"
compound=CN1C(=O)[C@@]23C[C@]4([C@]56C[C@@]78SS[C@@](CO)(C(=O)N7[C@H]5Nc5ccccc56)N(C)C8=O)c5ccccc5N[C@@H]4N2C(=O)[C@]1(CO)SS3 recorded_result="> 50 µM"
compound=CS[C@]1(CO)C(=O)N2[C@H]3C(=CC=C[C@@H]3OC(C)=O)C[C@@]2(SC)C(=O)N1C recorded_result="12.8 µM"

* * *

Molecular target: Thioredoxin reductase 1, cytoplasmic (Homo sapiens, UniProt Q16881)
Sequence (Q16881 whole entry): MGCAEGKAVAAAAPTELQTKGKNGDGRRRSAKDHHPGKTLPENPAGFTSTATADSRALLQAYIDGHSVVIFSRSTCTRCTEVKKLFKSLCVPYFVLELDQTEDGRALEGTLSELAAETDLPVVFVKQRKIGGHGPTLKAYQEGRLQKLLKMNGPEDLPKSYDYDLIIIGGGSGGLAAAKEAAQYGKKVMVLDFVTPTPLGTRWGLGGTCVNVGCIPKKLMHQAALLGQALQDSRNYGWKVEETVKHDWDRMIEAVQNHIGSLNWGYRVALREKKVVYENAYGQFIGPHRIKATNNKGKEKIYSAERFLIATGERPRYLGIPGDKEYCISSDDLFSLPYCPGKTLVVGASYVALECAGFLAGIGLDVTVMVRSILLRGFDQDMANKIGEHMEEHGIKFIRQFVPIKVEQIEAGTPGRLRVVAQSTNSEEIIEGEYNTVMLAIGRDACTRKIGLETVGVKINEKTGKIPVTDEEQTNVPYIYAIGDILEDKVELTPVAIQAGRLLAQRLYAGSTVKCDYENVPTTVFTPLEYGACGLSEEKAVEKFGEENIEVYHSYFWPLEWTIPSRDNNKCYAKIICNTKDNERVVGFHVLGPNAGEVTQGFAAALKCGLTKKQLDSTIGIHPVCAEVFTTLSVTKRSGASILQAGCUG
experimental.readout: IC50 (µM)

molecule="CN1C(=O)[C@@]23C[C@]4([C@]56C[C@@]78SS[C@@](CO)(C(=O)N7[C@H]5Nc5ccccc56)N(C)C8=O)c5ccccc5N[C@@H]4N2C(=O)[C@]1(CO)SS3 [CHAETOCIN]" test_system="Thioredoxin reductase 1, cytoplasmic (Homo sapiens, UniProt Q16881)" experimental_readout=IC50 recorded_result=4.6
